Below, each entry is listed alongside its reported pIC50.
SUBJECT OF TEST: UDP-3-O-acyl-N-acetylglucosamine deacetylase (Pseudomonas aeruginosa (strain ATCC 15692 / PAO1 / 1C / PRS 101 / LMG12228), UniProt P47205)
Sequence (P47205 whole entry): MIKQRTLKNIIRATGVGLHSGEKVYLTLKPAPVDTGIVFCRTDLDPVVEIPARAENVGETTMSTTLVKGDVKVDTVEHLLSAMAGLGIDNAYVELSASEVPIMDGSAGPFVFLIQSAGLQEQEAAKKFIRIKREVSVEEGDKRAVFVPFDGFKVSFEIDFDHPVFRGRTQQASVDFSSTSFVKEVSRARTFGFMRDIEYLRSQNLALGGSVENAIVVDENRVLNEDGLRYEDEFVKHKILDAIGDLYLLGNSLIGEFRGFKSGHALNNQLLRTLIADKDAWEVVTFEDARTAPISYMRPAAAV
RUN DESCRIPTION: At the end of 1 hour, 5 ul of 1N HCl was added to stop the enzyme reaction; the plates were centrifuged, and then processed with the BioTrove Rapidfire HTMS Mass Spectrometry System.
Schema: pIC50 number; meaning minus log10 of the concentration expressed in molar units.

// pIC50 lookup, key: CC(CCc1ccc(OCc2ccc(F)cc2C(F)(F)F)cc1)(C(=O)NO)S(C)(=O)=O (centres undefined)
8.63

// pIC50 lookup, key: CC(CCc1ccc(OCc2cccc(OC(F)(F)F)c2)cc1)(C(=O)NO)S(C)(=O)=O (centres undefined)
8.57

// pIC50 lookup, key: CC(CCc1ccc(OCc2cccc(F)c2)cc1)(C(=O)NO)S(C)(=O)=O (centres undefined)
9.08

// pIC50 lookup, key: CC(CCc1ccc(OCc2cc(C#N)ccc2F)cc1)(C(=O)NO)S(C)(=O)=O (centres undefined)
8.87

// pIC50 lookup, key: Cc1ccc(-c2noc(COc3ccc(CCC(C)(C(=O)NO)S(C)(=O)=O)cc3)n2)cc1 (centres undefined)
8.46

// pIC50 lookup, key: CC(CCc1ccc(OCc2nc(C3CCCC3)no2)cc1)(C(=O)NO)S(C)(=O)=O (centres undefined)
8.14

Hey, just so you know, these numbers are from ChEMBL document CHEMBL3638721.
